- Test system: CCRIS mutagenicity, Ames/micronucleus/aberration tests
- assay_name: CCRIS mutagenicity studies
- run_parameters: Test System: AMES SALMONELLA TYPHIMURIUM; Strain/Indicator: TA1538; Metabolic Activation: NONE; Method: PREINCUBATION
Calls of active or inactive are those of the source. No rule for the calls is given here.
Pick one and only one: YES (active), NO (inactive)

Field: example entries. Status: answers known.
1) O=c1[nH]c(=O)n([C@H]2C[C@H](O)[C@@H](CO)O2)cc1I ... NO
2) O=C(O)c1cc2ccccc2cc1O ... NO
3) Nc1ccc(S(=O)(=O)O)c2ccccc12 ... NO

Incoming: Recorded test call requested for `CCOc1cccc([N+](=O)[O-])c1`
Outgoing: NO

Incoming: Recorded test call requested for `N#Cc1ccccc1C#N`
Outgoing: NO

Incoming: Recorded test call requested for `C#CCNC(=NCCSCc1nc[nH]c1C)NC#N`
Outgoing: NO

Incoming: Recorded test call requested for `O=Cc1ccc(O)cc1`
Outgoing: NO

Incoming: Recorded test call requested for `Nc1cc(S(=O)(=O)O)cc2cc(S(=O)(=O)O)cc(O)c12`
Outgoing: NO

Incoming: Recorded test call requested for `Nc1ccccc1[N+](=O)[O-]`
Outgoing: NO

* * *

- Test system: CCRIS mutagenicity, Ames/micronucleus/aberration tests
- assay_name: CCRIS mutagenicity studies
- run_parameters: Test System: AMES SALMONELLA TYPHIMURIUM; Strain/Indicator: TA100; Metabolic Activation: RAT, LIVER, S-9, AROCLOR 1254; Method: STANDARD PLATE
The source made the active and inactive calls. No rule for the calls is given here.
quantity_measured: mutagenic call

Use the examples below as a reference point.
1. O=C(OCCBr)C(=O)OCCBr ... active; positive
2. CN1CCC=C2c3nc(N)sc3CCC21 (stereo not drawn) ... active; positive
3. C[C@]12CC[C@H](OC(=O)Cc3ccc(N(CCCl)CCCl)cc3)C[C@@H]1CC[C@@H]1[C@@H]2CC[C@]2(C)NC(=O)CC[C@@H]12 ... active; positive
4. Nc1ccccc1SCCSc1ccccc1N ... active; positive
5. C=C(C)C(=O)OCCOC(=O)C(=C)C ... inactive; negative

Incoming: Request the reported mutagenic call associated with `O=S(=O)(O)c1cccc2cccnc12`
Outgoing: inactive; negative

Incoming: Request the reported mutagenic call associated with CCc1cccc2c3c([nH]c12)C(CC)(CC(=O)O)OCC3 (stereo not drawn)
Outgoing: inactive; negative

Incoming: Request the reported mutagenic call associated with `O=S(c1cc(Cl)cc(Cl)c1O)c1cc(Cl)cc(Cl)c1O`
Outgoing: inactive; negative

Incoming: Request the reported mutagenic call associated with CCCCC(CC)COC(=O)c1ccccc1C(=O)O (stereo not drawn)
Outgoing: inactive; negative

* * *

- Test system: CCRIS mutagenicity, Ames/micronucleus/aberration tests
- assay_name: CCRIS mutagenicity studies
- run_parameters: Test System: CHINESE HAMSTER OVARY; Strain/Indicator: CHO-K1-BH4 (HGPRT); Metabolic Activation: NONE
Activity calls are given as the source filed them. No rule for the calls is given here.
Pick one and only one: active, inactive

Field: example entries. Status: answers known.
1. O=[N+]([O-])c1ccc2ccc3c4c(cc5ccc1c2c53)C=C[C@H](O)[C@H]4O ... inactive
2. O=[N+]([O-])c1ccc2ccc3cc4c(c5ccc1c2c35)[C@H](O)[C@@H](O)C=C4 ... inactive
3. CCC(=O)N(c1ccc(Cl)c(Cl)c1)[C@@H]1CCC[C@H]1N(C)C ... inactive

Below: the item to evaluate.
Incoming: Recorded test call requested for `O=Nc1c2ccccc2c2ccc3cccc4ccc1c2c43`
Outgoing: active
